Experiment: Toxicity liver stage against HepG2, at 10uM
Format: cell-based
Design: test concentration 10 uM, cell line HepG2-A16-CD81EGFP
Settings: human, HepG2-A16-CD81EGFP cells; read-out: INHIBITION
endpoint.label: cytotoxicity at 10 µM (%)
Answers are plain numbers, in %.

INSERT INTO results (compound, unit_spec, value) VALUES
  ('COc1ncccc1CNC(=O)NCCNC(=O)c1ccco1', '%', -0.313),
  ('COCCn1c(C(=O)NCc2n[nH]c(C)n2)cc2ccccc21', '%', -3.83),
  ('Cc1cnc(CNC(=O)CC2CCc3ccccc32)cn1 (stereo unspecified)', '%', -0.862);

Look at each compound and report its cytotoxicity at 10 µM.
1. Cc1cnccc1NCCn1ccnc1C1CCOC1 (stereo unspecified)
2. CC(C)NC(=O)CC(C)NCc1cc(Cl)ccc1F (stereo unspecified)
3. CCS(=O)(=O)c1ccccc1N1CCC(NC(=O)NC2CCCC2)CC1

stdout:
1. 3.8
2. -40
3. -16
